These measurements were taken from patent US8546440B2.

- Test system: Aβ42
- TEST_NAME: Screening for γ-secretase-modulating activity, Method 2: Aβ42 Alphalisa in supernatant of SKNBE2 cells carrying APP 695 wild type (Table 12c)
- Assay type: cell-based
- STUDY_CONDITIONS: Method 2, Table 12c, incubated overnight
METRIC_NAME: pIC50
Expect pIC50 as a plain number equal to -log10 of the molar concentration.

COc1nc(Nc2cc(F)cn3cc(CC(C)C)nc23)ccc1-n1cnc(C)c1 [Compound 142]
7.51
Cc1cn(-c2ccc(Nc3cc(F)cn4cc(C5CCOCC5)nc34)cc2F)cn1 [Compound 149]
6.76
COCc1c(-c2ccc(F)cc2)nc2c(Nc3ccc(-n4cnc(C)n4)c(OC)c3)cccn12 [Compound 125]
7.29
Cc1cn(-c2ccc(Nc3cc(Cl)cn4cc(C5CCOCC5)nc34)cc2F)cn1 [Compound 150]
6.70
COc1nc(Nc2cccn3cc(C4CCOCC4)nc23)ccc1-n1cnc(C)c1 [Compound 143]
7.22

From here, focus on the item given below.
Look up pIC50: COc1cc(Nc2cccn3cc(C(O)C(F)(F)F)nc23)ccc1-n1cnc(C)c1 (centres unmarked) [Compound 110]
6.89
